The measured values listed here are drawn from patent US6977154.

Tested target: zfHAE(Y)
Method notes: phage ELISA, apparent Kd; PBS, 50 uM ZnCl2, 20 C
Condition description: protein: virion; tags: phage fd pIII fusion (Fd-Tet-SN), Zif268 framework; label: 5' biotin
Measure: Kd (nM)

# Binder, Reading
measured = [
    ("HAE(M) G-GGMC-GGCG (dsDNA, 5mC at M (G-GGMC-GGCG), both strands [10 (5mC)]) DNA 1: TATAGTGGGCCGGCGTGTCACAGTCAGTCCACACACGTC DNA 2: GACGTGTGTGGACTGACTGTGACACGCCGGCCCACTATA", 6.3),
]
